System: SKOV3
Assay: Primary qHTS to identify gynecologic anti-cancer compounds using libraries of approved drugs and bioactive compounds (AID 1345084); further: on the % scale 0 is the no-effect control and ±100 the full control effect; nearly all actives have a fitted effect of over 55% in size
Conditions: Gynecologic cancer cell panel viability, ATPlite luminescence, 48 h; series mostly up to 57.5 µM
Description: National Center for Advancing Translational Sciences [NCATS] Assay Overview: Chemotherapeutic drug responses vary from cancer to cancer and from patient to patient. […] ATPlite is a luminescence based assay reliant on the conversion of a luciferase substrate to light in the presence of ATP. As a cytotoxic compound will suppress growth and decrease the number of cells, the concentration of ATP will decrease, and less light signal will be detected in the well. […]
Results filed as inconclusive are left out. Activity calls are given as the source filed them. The call rests on the fitted dose curve; in most records, active means well fitted cell-killing curve with a large enough effect; inconclusive means small, poorly fitted or top-dose-only effect, or effect the other way; inactive means flat fitted curve, though single readings scatter.
reported_metric: activity change, negative = cytotoxicity

A selection of reference data follows.
[[record]]
molecule = "CC1(C)CC[C@]2(CO[C@@H]3O[C@H](CO)[C@@H](O)[C@H](O)[C@H]3O)[C@@H](O)C[C@]3(C)C(=CCC4[C@@]5(C)CC[C@H](O[C@@H]6O[C@H](CO[C@@H]7O[C@H](CO[C@@H]8OC[C@@H](O)[C@H](O)[C@H]8O)[C@@H](O)[C@H](O)[C@H]7O)[C@@H](O)[C@H](O)[C@H]6O)C(C)(C)C5CC[C@]43C)[C@@H]2C1 (some centres not stated)"
reported_metric = "activity change, negative = cytotoxicity"
endpoint_result = "-1.91% [at 11.6 µM] (inactive)"

[[record]]
molecule = "C[C@@H]1O[C@@H](O[C@H]2[C@H](O)[C@@H](O[C@@H]3O[C@H](CO)[C@@H](O)[C@H](O[C@@H]4O[C@H](CO)[C@@H](O)[C@H](O)[C@H]4O)[C@H]3O)[C@H](O[C@H]3CC[C@@]4(C)C(=CC[C@@H]5C4CC[C@@]4(C)C5C[C@@H]5OC6(CC[C@@](C)(CO[C@@H]7O[C@H](CO)[C@@H](O)[C@H](O)[C@H]7O)O6)[C@@H](C)[C@@H]54)C3)O[C@@H]2CO)[C@H](O)[C@H](O)[C@H]1OC1OC(CO)C(O)C(O)C1O (some centres not stated)"
reported_metric = "activity change, negative = cytotoxicity"
endpoint_result = "-3.09% [at 6.55 µM] (inactive)"

[[record]]
molecule = "C[C@@H]1O[C@@H](O[C@H]2[C@H](O[C@H]3[C@H](O)[C@@H](C(=O)O)O[C@@H](O[C@H]4CC[C@@]5(C)C(CC[C@]6(C)C5CC[C@]57OC[C@@]8(CCC(C)(C)CC85)[C@H](O)C[C@]76C)C4(C)C)[C@@H]3O[C@@H]3O[C@H](CO)[C@@H](O[C@@H]4OC[C@@H](O)[C@H](O)[C@H]4O)[C@H](O)[C@H]3O)O[C@H](CO)[C@H](O)[C@@H]2O)[C@H](O)[C@H](O)[C@H]1O (some centres not stated)"
reported_metric = "activity change, negative = cytotoxicity"
endpoint_result = "0% [at 6.55 µM] (inactive)"

[[record]]
molecule = "CC1(C)CC[C@]2(C(=O)O[C@@H]3O[C@H](CO)[C@@H](O)[C@H](O)[C@H]3O)CC[C@]3(C)C(=CCC4[C@@]5(C)CC[C@H](O[C@@H]6O[C@H](C(=O)O)[C@@H](O)[C@H](O)[C@H]6O)C(C)(C)C5CC[C@]43C)C2C1 (some centres not stated)"
reported_metric = "activity change, negative = cytotoxicity"
endpoint_result = "0% [at 11.6 µM] (inactive)"

[[record]]
molecule = "C[C@@H]1O[C@@H](O[C@H]2[C@H](O[C@H]3CC[C@@]4(C)C(CC[C@]5(C)C4C=C[C@]46OC[C@@]7(CCC(C)(C)C[C@H]74)[C@@H](O)C[C@]65C)[C@]3(C)CO)O[C@H](CO)[C@@H](O)[C@@H]2O[C@@H]2O[C@H](CO)[C@@H](O[C@@H]3O[C@@H](C)[C@H](O)[C@@H](O)[C@H]3O)[C@H](O)[C@H]2O)[C@H](O)[C@H](O)[C@H]1O (some centres not stated)"
reported_metric = "activity change, negative = cytotoxicity"
endpoint_result = "-29.1% [at 11.6 µM] (inactive)"


Prompt: # value lookup — system SKOV3, readout activity change, negative = cytotoxicity, item CC1(C)CC[C@]2(C(=O)O[C@@H]3O[C@H](CO)[C@@H](O)[C@H](O)[C@H]3O)CC[C@]3(C)C(=CCC4[C@@]5(C)CC[C@H](O[C@@H]6O[C@H](C(=O)O)[C@@H](O)[C@H](O[C@@H]7O[C@H](CO)[C@H](O)[C@H](O)[C@H]7O)[C@H]6O)C(C)(C)C5CC[C@]43C)C2C1 (some centres not stated)
Response: 12.6% [at 11.6 µM] (inactive)
